Measured values drawn from the RNAGym collection of RNA variant scans (doi:10.1021/acssynbio.7b00057) for this set.

B1: Pistol ribozyme (parent)
chain: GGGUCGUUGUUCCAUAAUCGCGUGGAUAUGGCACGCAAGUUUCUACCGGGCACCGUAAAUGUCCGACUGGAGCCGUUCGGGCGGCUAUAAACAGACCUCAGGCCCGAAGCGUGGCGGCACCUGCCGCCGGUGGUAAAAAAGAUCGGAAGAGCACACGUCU

variants of: B1; test: aptazyme ON/OFF ratio, guanine; higher = stronger switching; co-transcriptional cleavage with and without guanine
ASSAY_METRIC: aptazyme ON/OFF ratio

INSERT INTO measurements (change, reported_result) VALUES
  ('U8C U10C U11A C12G C13G', 1.24),
  ('U7A U8C G9C U10C', 1.18),
  ('U7A G9U U10G U11G C12U C13U', 1.51),
  ('U7A U8G G9A U10A C12U C13G', 1.13),
  ('U7C U8G G9C U11C C12A C13U', 2.13),
  ('U7A U8A G9U U11G C12G C13U', 1.1),
  ('G9C U10A C12A C13G', 1.16),
  ('U7A U8A U10C', 3.05),
  ('U7C G9U U10G U11G C12A', 1.22),
  ('U7A U8G G9A U11A C12U C13A', 1.37),
  ('U7A U8G G9U U11A C12G', 1.38),
  ('U7G U8C G9U U10G C13A', 1.24),
  ('U7G U8C U10G U11G C12G', 1.22),
  ('U7A U8G G9C U10C U11G C12U C13G', 1.15),
  ('U8A G9A U11C C13G', 1.08),
  ('U7A U8A U10G U11G C12U C13A', 1.23),
  ('U7G U8A G9C U11G C12A C13U', 1.06),
  ('U7G U8C U10A U11C C13A', 1.05),
  ('U7A U10G U11A C12G C13U', 1.28),
  ('U7G U8A G9U U11C C12A C13U', 1.16),
  ('U7C U8G G9A U10G C12A C13G', 1.08),
  ('U7A U8A G9U U10G U11G C13A', 1.24),
  ('U8G G9A U10A U11G C13G', 1.07),
  ('U7A U8G G9U U10A U11G C12U C13A', 1.08),
  ('U7C U8A G9U C13G', 1.03),
  ('U7G U8G G9C U11G C12U C13U', 1.26),
  ('U7G U8C G9C C12U C13G', 1.12),
  ('U8A U10C U11C C12U C13U', 1.04),
  ('U7G U8G U10A U11A C12G', 1.22),
  ('U7G U8G G9U C13G', 1.26),
  ('G9C U10A C12U', 1.6),
  ('U7A U8G G9U U10G C12G C13G', 1.11),
  ('U7G U8A G9A U10G U11A C13G', 1.06),
  ('U7A U8G G9C U11A C12U C13U', 1.46),
  ('U7A U8A G9U U10C C13A', 1.08),
  ('U7G U8G G9C U10A C12U C13A', 1.01),
  ('U8C G9C U11A C12A C13U', 1.05),
  ('U7A U8G G9U U11A C12U C13U', 1.07),
  ('U7A U8A G9A U11G C12A C13U', 1.09),
  ('U7G U8A U10A U11A C12A C13G', 1.18),
  ('U7G U8C G9A U10A U11A C12A C13G', 1.12),
  ('U7A U8A G9C U10A U11G C12G C13G', 1.25),
  ('U7C G9A U10C U11A C12U C13U', 1.39),
  ('U7A U8G G9U U10G U11G C12A C13G', 1.13),
  ('U7A U8C G9C U10G U11A C12G C13G', 1.17),
  ('U7C G9A U10A U11A C12A C13G', 1.23),
  ('G9A U10C U11C C12A C13A', 1.12),
  ('U8G G9U U11G C12A C13U', 1.21),
  ('U7G U8C G9U U10A U11A C13G', 1.08),
  ('U7C U8G U10G U11A C12A C13A', 1.11),
  ('U7A U10C U11A', 1.2),
  ('U8G G9A U10A U11C C12U C13U', 1.07),
  ('U7C G9U U10G C12U C13A', 1.2),
  ('G9A U10G U11A C12G C13U', 1.53),
  ('U7A U8G G9C U11C C12U C13G', 1.38),
  ('U7A U8G G9U U10C U11A C12A C13U', 1.47),
  ('U7A G9A U10G U11C', 1.06),
  ('U7C G9A U10C U11A C12A C13A', 1.12),
  ('U7G U8G G9A U10G U11A C12U C13G', 1.21),
  ('U7A U8A U10C U11C C12A C13G', 1.09),
  ('U7A U8C G9A U10C U11C', 1.08),
  ('U7A U8A G9C U10G U11A C12G C13G', 1.21),
  ('U7A U8A G9C U10G C12A C13A', 1.18),
  ('U7G U8C G9A U10C U11C C13U', 1.01),
  ('G9U U10G U11G C13A', 1.25),
  ('U7C U8C G9U U10A C12U C13U', 1.19),
  ('U7A U8G G9C U10G C12U C13G', 1.23),
  ('U7A G9C U10G U11A C12A C13A', 1.07),
  ('U7A U8A U10G U11C C12G', 1.32),
  ('U7A U8A G9A U10G U11A C12A C13A', 1.02),
  ('U7A U8C U10C U11C C12G C13A', 1.12),
  ('U7A U8A G9U U10A C12A C13G', 1.24),
  ('U7C U8A G9A C13G', 1.06),
  ('U7A G9U U10C U11C C13U', 1.02),
  ('U7G G9C U10G U11G C12G', 1.07),
  ('U7A U8G G9A U10C U11A C12A C13U', 1.19),
  ('U7C U8G G9U U10G U11C C12G C13G', 1.07),
  ('U7A G9A U10G U11A C12G C13A', 1.12),
  ('U8A G9A U10C U11C C12A C13G', 1.1),
  ('U7A U10G U11G C13U', 1.27),
  ('U7G U8C G9A U10C C12A C13G', 1.14),
  ('U8A G9C U10C U11C C12A', 1.04),
  ('U8C U10C U11G C13A', 1.26),
  ('U7G U8C G9A U10G U11C C12A', 1.3),
  ('U8C G9U U10G U11G C13G', 1.13),
  ('U7A U8C G9A U10G U11G C12A C13A', 1.39),
  ('U7A U8G G9U U10C U11A C13G', 1.33),
  ('U7G G9C U10A U11C C13U', 1.14),
  ('U7G U8A U10A U11G C12A C13A', 1.17),
  ('U7C U8C G9C U10G C12A C13A', 1.1),
  ('U7C U8A U11G C12U', 1.3);
